Entry source: patent US20260138990A1

Target: mouse CD38 (Mus musculus)
Sequence (P56528 whole entry): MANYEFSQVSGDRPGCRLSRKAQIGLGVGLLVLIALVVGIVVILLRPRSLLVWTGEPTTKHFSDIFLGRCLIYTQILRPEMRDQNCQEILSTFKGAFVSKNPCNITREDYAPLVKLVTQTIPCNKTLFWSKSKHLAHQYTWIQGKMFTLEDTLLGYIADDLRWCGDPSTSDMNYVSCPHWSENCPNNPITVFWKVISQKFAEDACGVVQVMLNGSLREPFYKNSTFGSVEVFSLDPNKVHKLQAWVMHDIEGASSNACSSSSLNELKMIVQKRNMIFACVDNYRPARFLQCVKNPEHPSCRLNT
Assay: NAD+ cyclase activity assay with mouse recombinant CD38 protein (ε-NAD fluorescence)
Settings: 0.6 nM mouse CD38, substrate ε-NAD, 30 min preincubation, fluorescence 300/410 nm
pIC50: −log10 of the molar value.
Reported Endpoint: pIC50

Past entries and their recorded results:
- O=C(Nc1cnc2c(c1)OCCO2)c1cc(Cl)c2c(c1)-c1cncn1CCO2 [Compound 129A]: 8.00 to 9.00
- O=C(NC1CCCC(C(F)(F)F)C1)c1ccc2c(c1)-c1cncn1CCO2 (stereo not drawn) [Compound 151A]: 8.00 to 9.00
- CS(=O)(=O)C1CCC(NC(=O)c2ccc3c(c2)-c2cncn2CCO3)CC1 (stereo not drawn) [Compound 146A]: 7.00 to 8.00
- CS(=O)(=O)CCCO[C@H]1CC[C@H](NC(=O)c2ccc3c(c2)-c2cncn2CCO3)CC1 [Compound 85A]: 8.00 to 9.00

What the record says about O=C(N[C@H]1CC[C@H](OCC(F)(F)F)CC1)c1ccc2c(c1)-c1cncn1CCO2 [Compound 122A] : pIC50 is 8.00 to 9.00

molecule COCCO[C@H]1CC[C@H](NC(=O)c2ccc3[nH]c(=O)c4cncn4c3c2)CC1 [Compound 11A] , pIC50 observed: < 7.00

pIC50 measured on O=C(N[C@H]1CC[C@@H](NCCC(F)(F)F)CC1)c1ccc2c(c1)-c1cncn1CCO2 [Compound 111A] = < 7.00

Sure, the documented pIC50 for O=C(N[C@H]1CCc2ccccc21)c1ccc2c(c1)-c1cncn1CCO2 [Compound 6A] is 8.00 to 9.00

Reported pIC50 for O=C(NC1CCCC(C(F)(F)F)C1)c1cc(F)c2c(c1)-c1cncn1CCO2 (stereo not drawn) [Compound 161A] was 8.00 to 9.00

The recorded pIC50 for O=C(Nc1ccc2nc[nH]c2c1)c1ccc2c(c1)-c1cncn1CCO2 [Compound 34A] is 8.00 to 9.00

The molecule C[C@H](N[C@H]1CC[C@H](NC(=O)c2ccc3c(c2)-c2cncn2CCO3)CC1)C(F)(F)F [Compound 87A] showed pIC50 equal to > 9.00

What the record says about CC1(C)Cn2cncc2-c2cc(C(=O)N[C@@H]3CCCOC3)ccc2O1 [Compound 38A] : pIC50 is 7.00 to 8.00

pIC50 in this record for CC(C1CCC(NC(=O)c2ccc3c(c2)-c2cncn2CCO3)CC1)C(F)(F)F (stereo not drawn) [Compound 133A] : 8.00 to 9.00

pIC50 measured on O=C(N[C@H]1CC[C@H](N2CC(C(F)F)C2)CC1)c1ccc2c(c1)-c1cncn1CCO2 [Compound 113A] = 8.00 to 9.00

response.value for C[C@@H](N[C@H]1CC[C@H](NC(=O)c2ccc3c(c2)-c2cncn2CCO3)CC1)C(F)(F)F [Compound 74A] (field: pIC50) = 8.00 to 9.00
